assay: In-situ salt selection test carried out in water with a cosolvent; assay type: physicochemical; details: 25 °C, aqueous with cosolvent or surfactant or cyclodextrin, thermodynamic from solid; 5% (w/w) propylene glycol in water; final acid concentration 0.05 M
METRIC: solubility at 24 h (mg/mL)
The reply should contain only the number, in mg/mL.

input: Tell me the measured solubility at 24 h of CC(C)Cn1cnc2c(N)nc3cccnc3c21.CS(=O)(=O)O [Methanesulfonic] , please.
output: 10.3

###

test: Aqueous solubility of the free base measured potentiometrically as a function of pH (p-SOL microtitrator); format: physicochemical; conditions: saline or isotonic, thermodynamic from solid, 0.15 M aqueous potassium chloride, potentiometric titration, read-out: intrinsic solubility (So)
METRIC: solubility (µg/mL)
Could you give me the number in µg/mL? Just the number is fine.

input: If you can, please state the reported solubility value of CC(C)Cn1cnc2c(N)nc3cccnc3c21 .
output: 3

###

assay: In-situ salt selection test carried out in water with a cosolvent; assay type: physicochemical; conditions: 25 °C, aqueous with cosolvent or surfactant or cyclodextrin, thermodynamic from solid; 5% (w/w) diethylene glycol monoethyl ether in water; final acid concentration 0.05 M
METRIC: solubility at 24 h (mg/mL)

CC(C)Cn1cnc2c(N)nc3cccnc3c21.CCS(=O)(=O)O; 10.5
CC(C)Cn1cnc2c(N)nc3cccnc3c21.CS(=O)(=O)O; 10.5

###

test: In-situ salt selection test carried out in water; assay type: physicochemical; settings: summary statement
METRIC: aqueous solubility (in words)

CC(C)Cn1cnc2c(N)nc3cccnc3c21.CCS(=O)(=O)O; good aqueous solubility
CC(C)Cn1cnc2c(N)nc3cccnc3c21.CS(=O)(=O)O; good aqueous solubility

###

test: In-situ salt selection test carried out in water; assay type: physicochemical; settings: water (salt formed in situ with aqueous acid), thermodynamic from solid; salt formed in situ in water, shaken at 25° C. for 24 hours, filtrate by HPLC
METRIC: solubility at 24 h (mg/mL)

(P) CC(C)Cn1cnc2c(N)nc3cccnc3c21.CS(=O)(=O)O [Methanesulfonic]
(Q) CC(C)Cn1cnc2c(N)nc3cccnc3c21.CCS(=O)(=O)O [Ethanesulfonic]
input: Lowest solubility at 24 h? choose P or Q Selection: enter the item's label.
output: P
(P: 15.2 mg/mL, Q: 24.4 mg/mL)

###

assay: pKa determined potentiometrically; assay type: physicochemical; conditions: determined potentiometrically in a separate experiment
METRIC: pKa
Please respond with just the number, no unit label.

input: # input compound: CC(C)Cn1cnc2c(N)nc3cccnc3c21 ; wanted: its pKa
output: 6.1
